- assay: chemical genetic growth profiling, strain panel (AID 1159580);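 further: tested at 20 µM; growth read once vehicle control cultures reached saturation at 30 °C; 1 = growth at the plate median or of vehicle wells; lower values mean less growth of the strain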
- stated conditions: S. cerevisiae deletion strains, growth OD, locus YHR030C, strain SLT2, hits give low values
The whole screen tested about 5,500 compounds, of which about 2,000 (36%) were called active. About 18% were inconclusive and are not listed. The list shows a part of the results.
measured metric: normalized growth
Format: numeric value only, no unit, no commentary.

[[record]]
structure_string = "O=C(CCc1nc(-c2ccc(Cl)cc2)no1)NNS(=O)(=O)c1cc(Cl)c(Cl)cc1Cl"
measured_metric = "normalized growth"
test_value = 0.98

[[record]]
structure_string = "OC[C@@H](O)[C@@H](O)[C@H](O)[C@@H](O)CO"
measured_metric = "normalized growth"
test_value = 0.986

[[record]]
structure_string = "O=C(Oc1cccc2[nH]ccc12)c1ccc(C(F)(F)F)cc1"
measured_metric = "normalized growth"
test_value = 0.454

[[record]]
structure_string = "O=C(ON=C1CCCCC1)c1ccc([N+](=O)[O-])cc1"
measured_metric = "normalized growth"
test_value = 0.576

[[record]]
structure_string = "CCc1nnc(N=CNO)s1"
measured_metric = "normalized growth"
test_value = 0.573


### Prompt Find the measured normalized growth of Cc1oc(C(C)(C)C)cc1C(=O)Nc1ccc([N+](=O)[O-])cc1 and report it.
### Response 0.584

### Prompt Find the measured normalized growth of Fc1cc(I)ccc1Nc1ccnc2cc(Cl)ccc12 and report it.
### Response 0.841

### Prompt Find the measured normalized growth of Cc1ccc(S(=O)(=O)NC(=O)Nc2ccc(Sc3ccccc3)nc2Sc2ccccc2)cc1 and report it.
### Response 0.745

* * *

// normalized growth lookup, one value per entry
- assay: chemical genetic growth profiling, strain panel (AID 1159580)
- stated conditions: S. cerevisiae deletion strains, growth OD, locus YLR113W, strain HOG1, hits give low values
Out of some 5,500 compounds screened, about 2,000 (36%) were called active. About 18% were inconclusive and are not listed. The list shows a part of the results.
Format: numeric value only, no unit, no commentary.

[[record]]
molecule = "O=C(Nc1cccc(C(F)(F)F)c1)c1cncc(C#Cc2ccccc2)c1"
test_value = 0.902


Pending molecule:
### Prompt Find the measured normalized growth of CCCCCCCCC(=O)NCc1ccc(O)c(OC)c1 and report it.
### Response 1.01

* * *

- assay: chemical genetic growth profiling, strain panel (AID 1159580)
- stated conditions: S. cerevisiae deletion strains, growth OD, locus YDR001C, strain nth1, hits give low values
The whole screen tested about 5,500 compounds, of which about 2,000 (36%) were called active. Inconclusive results (about 18%) are left out. The list shows a part of the results.
// normalized growth lookup, one value per entry
Format: numeric value only, no unit, no commentary.

[[record]]
compound = "COc1ccc(C(=O)CC(=O)O)c2c1C=CC(C)(C)O2"
test_value = 0.995

[[record]]
compound = "COc1ccc2c(c1)OC1(O)COc3cc(OC)c(OC)cc3C1=C2 (configuration not stated)"
test_value = 0.98

[[record]]
compound = "CC[C@@H]1C=C/C=C/C[C@H](C)[C@@H](O)[C@](C)(O)C(=O)[C@H](C)[C@@H](O)[C@H](C)C(=O)[C@H](C)[C@@H](O)[C@H](C)/C=C/C(=O)O[C@H]2[C@@H](C)[C@@H](CC1)O[C@@]1(CC[C@@H](C)[C@@H](C[C@H](C)O)O1)[C@@H]2C"
test_value = 1.01

[[record]]
compound = "O=C(/C=C/c1ccc(O)c(O)c1)OC(Cc1ccc(O)c(O)c1)C(=O)O (configuration not stated)"
test_value = 1.02

[[record]]
compound = "O=S(=O)(O)c1cc(N=C=S)ccc1/C=C/c1ccc(N=C=S)cc1S(=O)(=O)O"
test_value = 1.02


### Prompt Find the measured normalized growth of CC[C@@]1(O)C[C@H](O)c2c(cc3c(c2O)C(=O)c2c(O)ccc(O)c2C3=O)[C@H]1C(=O)OC and report it.
### Response 1

### Prompt Find the measured normalized growth of COc1ccc(CN(CCN(C)C)c2ccccn2)cc1 and report it.
### Response 1.01

### Prompt Find the measured normalized growth of CC(=O)S[C@@H]1CC2=CC(=O)CC[C@]2(C)[C@H]2CC[C@@]3(C)[C@@H](CC[C@@]34CCC(=O)O4)C12 (some centres not stated) and report it.
### Response 1

### Prompt Find the measured normalized growth of N=c1ccn2c(n1)OC1C(O)C(CO)OC12 (configuration not stated) and report it.
### Response 1.01

### Prompt Find the measured normalized growth of C[C@@H]1CC(Cl)CC[C@H]1C(=O)OC(C)(C)C (some centres not stated) and report it.
### Response 0.976

### Prompt Find the measured normalized growth of Oc1cc(O)c2c(c1)O[C@H](c1cc(O)c(O)c(O)c1)[C@H](O)C2 and report it.
### Response 1.02

### Prompt Find the measured normalized growth of NCCCS(=O)(=O)O and report it.
### Response 1.02

* * *

- assay: chemical genetic growth profiling, strain panel (AID 1159580)
- stated conditions: S. cerevisiae deletion strains, growth OD, locus YML094W, strain GIM5, hits give low values
Out of some 5,500 compounds screened, about 2,000 (36%) were called active. Another 18% or so got no clear call; they are omitted. This is one part of the list.
measured metric: normalized growth
Format: numeric value only, no unit, no commentary.

[[record]]
compound = "O=C(c1c(F)cccc1F)N1CCN(C(=O)c2c(F)cccc2F)CC1"
test_value = 0.996

[[record]]
compound = "Cc1onc(-c2c(Cl)cccc2Cl)c1-c1nc(-c2ccc3c(c2)OCCO3)cs1"
test_value = 0.991

[[record]]
compound = "Cc1ccc(C)n1-c1ccc(C(=O)NNC(=O)c2ccc3nccnc3c2)cc1"
test_value = 0.98


### Prompt Find the measured normalized growth of Cc1nn(C)c(C)c1[N+](=O)[O-] and report it.
### Response 0.994

### Prompt Find the measured normalized growth of OC1(c2ccc(F)cc2)Cc2ccccc2C2=NCCN21 (centres undefined) and report it.
### Response 0.982

* * *

- assay: chemical genetic growth profiling, strain panel (AID 1159580);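 further: tested at 20 µM; growth read once vehicle control cultures reached saturation at 30 °C; 1 = growth at the plate median or of vehicle wells; lower values mean less growth of the strain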
- stated conditions: S. cerevisiae deletion strains, growth OD, locus YDR162C, strain NBP2, hits give low values
In all, about 5,500 compounds went through this assay and about 2,000 (36%) were called active. Roughly 18% stayed inconclusive and do not appear here. The list shows a part of the results.
measured metric: normalized growth
Format: numeric value only, no unit, no commentary.

[[record]]
compound = "c1ccc2c(c1)CCCC2C1=NCCN1 (stereo not given)"
test_value = 1.02

[[record]]
compound = "CCN(CC)C(=O)N1CCN(C)CC1"
test_value = 1.02

[[record]]
compound = "COc1cc2c(cc1OC)C(=O)c1ccc(OC)c(OC)c1OCC(=O)C2"
test_value = 1.04


### Prompt Find the measured normalized growth of NS(=O)(=O)c1cc2c(cc1Cl)NC=NS2(=O)=O and report it.
### Response 1.02

### Prompt Find the measured normalized growth of CCC[C@H](N[C@@H](C)C(=O)N1[C@H](C(=O)O)C[C@@H]2CCCC[C@@H]21)C(=O)OCC and report it.
### Response 1.01

### Prompt Find the measured normalized growth of COc1ccc(C(=O)O)cc1OC and report it.
### Response 1.04

### Prompt Find the measured normalized growth of C=C[C@@](C)(O)CCC1C(=C)C[C@H](O)C2C(C)(C)CCCC12C (stereo not given in full) and report it.
### Response 0.994

### Prompt Find the measured normalized growth of Nc1nc(=S)c2[nH]cnc2[nH]1 and report it.
### Response 1.02

* * *

- assay: chemical genetic growth profiling, strain panel (AID 1159580);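 further: tested at 20 µM; growth read once vehicle control cultures reached saturation at 30 °C; 1 = growth at the plate median or of vehicle wells; lower values mean less growth of the strain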
- stated conditions: S. cerevisiae deletion strains, growth OD, locus YBR009C, strain hhf1, hits give low values
The whole screen tested about 5,500 compounds, of which about 2,000 (36%) were called active. Not shown: some 18% with an inconclusive outcome. The list shows a part of the results.
// normalized growth lookup, one value per entry
Format: numeric value only, no unit, no commentary.

[[record]]
molecule = "O=C(O[C@@H]1Cc2c(O)cc(O)cc2O[C@@H]1c1cc(O)c(O)c(O)c1)c1cc(O)c(O)c(O)c1"
measured_metric = "normalized growth"
test_value = 0.823

[[record]]
molecule = "CC1CCc2cc(F)cc3c(=O)c(C(=O)O)cn1c23 (centres undefined)"
measured_metric = "normalized growth"
test_value = 0.987

[[record]]
molecule = "CCN(CC)C(=O)N1CCN(C)CC1"
measured_metric = "normalized growth"
test_value = 0.957


Pending molecule:
### Prompt Find the measured normalized growth of NCCCS(=O)(=O)O and report it.
### Response 1.02

* * *

- assay: chemical genetic growth profiling, strain panel (AID 1159580);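 further: tested at 20 µM; growth read once vehicle control cultures reached saturation at 30 °C; 1 = growth at the plate median or of vehicle wells; lower values mean less growth of the strain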
- stated conditions: S. cerevisiae deletion strains, growth OD, locus YPL051W, strain arl3, hits give low values
The whole screen tested about 5,500 compounds, of which about 2,000 (36%) were called active. Not shown: some 18% with an inconclusive outcome. The list shows a part of the results.
// normalized growth lookup, one value per entry
Format: numeric value only, no unit, no commentary.

Below are worked cases with known answers.
[[record]]
molecule = "COc1ccc(-c2coc3cc(O)ccc3c2=O)c(OC)c1"
measured_metric = "normalized growth"
test_value = 1.01

[[record]]
molecule = "COc1ccc(OC)c(C(O)CNC(=O)CN)c1 (stereo not given)"
measured_metric = "normalized growth"
test_value = 1

[[record]]
molecule = "CNCCC(Oc1ccc(C(F)(F)F)cc1)c1ccccc1 (stereo not given)"
measured_metric = "normalized growth"
test_value = 0.992


### Prompt Find the measured normalized growth of O=S(=O)(O)c1cc(N=C=S)ccc1/C=C/c1ccc(N=C=S)cc1S(=O)(=O)O and report it.
### Response 0.994
